Molecular target: Vasopressin V1 receptor (Rattus norvegicus, UniProt P48974+P30560)
Experiment: Binding affinity against plasma membrane from rat liver
Positions of bridges follow the written chain, without caps; N, C: chain ends. Non-standard residues stand in square brackets, D forms with d. Residues, ends and D or L forms follow the SMILES beside them. NMeA = CN[C@@H](C)C(=O)O
quantity.measured: Kd (nM)
Number in nM, nothing else.

Q: Fill in the recorded Kd for this compound, with Vasopressin V1 receptor (Rattus norvegicus, UniProt P48974+P30560) as test system: CN(CC(=O)N[C@H](CCCN=C(N)N)C(=O)NCC(N)=O)C(=O)[C@@H]1CSSCCC(=O)N[C@@H](Cc2ccc(O)cc2)C(=O)N[C@@H](Cc2ccccc2)C(=O)N[C@@H](CCC(N)=O)C(=O)N[C@@H](CC(N)=O)C(=O)N1
Ans: 160

Q: Fill in the recorded Kd for this compound, with Vasopressin V1 receptor (Rattus norvegicus, UniProt P48974+P30560) as test system: CC(C)[C@@H]1NC(=O)[C@H](Cc2ccccc2)NC(=O)[C@H](Cc2ccc(O)cc2)NC(=O)[C@@H](N)CSSC[C@@H](C(=O)N(C)[C@@H](C)C(=O)N[C@@H](CCCNC(=N)N)C(=O)NCC(N)=O)NC(=O)[C@H](CC(N)=O)NC1=O (H-CYFVNC[NMeA]RG-NH2; disulfide 1-6)
Ans: 310
